# Assay Target: CDK4-NanoLuc fusion with CCND1 in 293T or 293 cells (Homo sapiens, UniProt P11802)
# Construct: host or cells: 293T (ATCC CRL-3216) or 293 (ATCC CRL-1573)
# Sequence (P11802 whole entry, the tested form may be a part): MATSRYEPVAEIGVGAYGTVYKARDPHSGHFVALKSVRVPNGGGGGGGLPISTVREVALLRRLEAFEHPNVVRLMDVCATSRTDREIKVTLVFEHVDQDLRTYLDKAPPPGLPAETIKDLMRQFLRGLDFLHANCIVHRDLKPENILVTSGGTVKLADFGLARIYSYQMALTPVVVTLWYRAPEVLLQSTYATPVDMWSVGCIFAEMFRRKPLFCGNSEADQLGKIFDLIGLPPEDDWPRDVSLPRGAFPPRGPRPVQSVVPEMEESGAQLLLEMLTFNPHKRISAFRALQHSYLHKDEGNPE
# Sequence (P24385 whole entry partner, the tested form may be a part): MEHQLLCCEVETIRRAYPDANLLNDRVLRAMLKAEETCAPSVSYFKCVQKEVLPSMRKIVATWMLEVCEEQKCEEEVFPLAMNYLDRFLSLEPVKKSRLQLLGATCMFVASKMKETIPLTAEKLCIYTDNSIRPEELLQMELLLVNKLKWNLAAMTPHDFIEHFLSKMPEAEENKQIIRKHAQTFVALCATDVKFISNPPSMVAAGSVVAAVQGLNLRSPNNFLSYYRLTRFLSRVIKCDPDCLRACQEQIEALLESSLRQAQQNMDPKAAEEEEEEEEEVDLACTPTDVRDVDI
# Method Description: NanoBRET Target Engagement (TE) Intracellular Kinase Assay, CDK4/CCND1
# Assay type: cell-based
# Condition Notes: NanoBRET TE intracellular kinase assay, 2-hour incubation, read-out: NanoBRET-CDK4/D1 IC50
The following compounds are listed with their measured IC50 values.

| Structure String | IC50 |
| --- | --- |
| CC(C)NC(=O)O[C@@H]1CC[C@H](c2cc(NC(=O)c3cc(-c4cccc(O)c4C=O)n(C)n3)n[nH]2)C1 | > 10 µM |
| CC(C)NC(=O)O[C@@H]1CC[C@H](c2cc(NC(=O)COc3ccc(F)c(O)c3C=O)n[nH]2)C1 | > 10 µM |
| COc1cc(OC)c2c(c1C=O)C[C@H](C(=O)Nc1cc([C@H]3C[C@@H](OC(=O)NC(C)C)C3)[nH]n1)C2 | > 3.46 µM |

Here is the next item to consider.
So for CC(C)NC(=O)O[C@@H]1CC[C@H](c2cc(NC(=O)c3cnc(-c4cccc(O)c4C=O)o3)n[nH]2)C1 , the logged IC50 turned out to be > 10 µM

* * *

# Assay Target: CDK1-NanoLuc fusion with CCNB1 in 293T or 293 cells (Homo sapiens, UniProt P06493)
# Construct: host or cells: 293T (ATCC CRL-3216) or 293 (ATCC CRL-1573)
# Sequence (P06493 whole entry, the tested form may be a part): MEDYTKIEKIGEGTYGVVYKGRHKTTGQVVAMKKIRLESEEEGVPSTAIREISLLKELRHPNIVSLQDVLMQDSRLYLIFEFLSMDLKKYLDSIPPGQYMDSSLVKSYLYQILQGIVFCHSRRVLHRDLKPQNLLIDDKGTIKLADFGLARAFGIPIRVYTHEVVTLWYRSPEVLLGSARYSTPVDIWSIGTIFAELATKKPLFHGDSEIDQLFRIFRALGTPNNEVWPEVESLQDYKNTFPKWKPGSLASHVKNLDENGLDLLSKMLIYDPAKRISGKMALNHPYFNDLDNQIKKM
# Sequence (P14635 whole entry partner, the tested form may be a part): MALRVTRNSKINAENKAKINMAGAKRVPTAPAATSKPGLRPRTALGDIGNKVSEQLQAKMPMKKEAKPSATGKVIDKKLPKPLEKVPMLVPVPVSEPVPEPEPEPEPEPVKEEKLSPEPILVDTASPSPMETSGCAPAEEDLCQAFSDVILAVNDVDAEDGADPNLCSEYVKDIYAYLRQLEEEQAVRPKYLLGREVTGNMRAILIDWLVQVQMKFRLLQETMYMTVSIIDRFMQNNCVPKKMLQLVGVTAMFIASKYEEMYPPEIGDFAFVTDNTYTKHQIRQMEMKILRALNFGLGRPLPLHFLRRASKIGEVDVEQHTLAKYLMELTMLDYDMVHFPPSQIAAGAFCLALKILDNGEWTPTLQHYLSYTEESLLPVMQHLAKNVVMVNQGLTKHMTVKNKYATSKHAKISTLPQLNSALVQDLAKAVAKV
# Method Description: NanoBRET Target Engagement (TE) Intracellular Kinase Assay, CDK1/CCNB1
# Format: cell-based
# Condition Notes: NanoBRET TE intracellular kinase assay, 2-hour incubation, read-out: NanoBRET-CDK1/B1 IC50
Class membership depends on IC50 alone; the intervals are bottom: < 10 nM; middle: ≥ 10 nM and < 40 nM; top: ≥ 40 nM

Examples with answers:
| Structure String | Group Label |
| --- | --- |
| COc1cc(O)c(C=O)c(OCC(=O)Nc2cc([C@H]3CC[C@@H](OC(=O)N4CC5CC4C5)C3)[nH]n2)c1 | bottom |
| COc1cc(O)c(C=O)c(OCC(=O)Nc2cc([C@H]3CC[C@@H](OC(=O)NC(C)(C)C)C3)[nH]n2)c1 | bottom |
| COc1cc(O)c(C=O)c(OCC(=O)Nc2cc([C@H]3CC[C@@H](OC(=O)N4CCCC4)C3)[nH]n2)c1 | middle |
| CCn1nc(-c2cccc(O)c2C=O)cc1C(=O)Nc1cc([C@H]2CC[C@@H](OC(=O)NC(C)C)C2)[nH]n1 | middle |

Please classify: COc1cc(OC)c(C=O)c(OCC(=O)Nc2cc([C@H]3C[C@@H](OC(=O)N4CCC4(C)C)C3)[nH]n2)c1
bottom

Please classify: CC(C)NC(=O)O[C@@H]1CC[C@H](c2cc(NC(=O)c3cc(-c4cc(F)cc(O)c4C=O)nn3C)n[nH]2)C1
middle

Please classify: COc1cc(OC)c(C=O)c(OCC(=O)Nc2cc([C@H]3C[C@@H](OC(=O)N4C5COCC4C5)C3)[nH]n2)c1
middle

Please classify: CC(C)NC(=O)O[C@@H]1CC[C@H](c2cc(NC(=O)COc3cc(OC(C)C)cc(O)c3C=O)n[nH]2)C1
middle

Please classify: COc1ccc(-c2cc(C(=O)Nc3cc([C@H]4CC[C@@H](OC(=O)NC(C)C)C4)[nH]n3)n(C)n2)c(C=O)c1O
middle

Please classify: COc1cc(O)c(C=O)c(OCC(=O)Nc2cc([C@H]3CC[C@@H](OC(=O)N4CC[C@H](OC)C4)C3)[nH]n2)c1
middle

* * *

# Assay Target: CDK4-NanoLuc fusion with CCND1 in 293T or 293 cells (Homo sapiens, UniProt P11802)
# Construct: host or cells: 293T (ATCC CRL-3216) or 293 (ATCC CRL-1573)
# Method Description: NanoBRET Target Engagement (TE) Intracellular Kinase Assay, CDK4/CCND1
# Assay type: cell-based
# Condition Notes: NanoBRET TE intracellular kinase assay, 2-hour incubation, read-out: NanoBRET-CDK4/D1 IC50
Measure: IC50 (µM)
# output: bare number, implied unit µM

So for COc1cc(OC)c(C=O)c(OCC(=O)Nc2cc([C@H]3CC[C@@H](OC(=O)N4CCC4(C)C)C3)[nH]n2)c1 , the logged IC50 turned out to be 1.29

So for CC1(NC(=O)O[C@@H]2CC[C@H](c3cc(NC(=O)COc4cccc(O)c4C=O)n[nH]3)C2)CCC1 , the logged IC50 turned out to be 2.49

So for Cc1cc(O)c(C=O)c(OCC(=O)Nc2cc([C@H]3CC[C@@H](OC(=O)N4C5COCC4C5)C3)[nH]n2)c1 , the logged IC50 turned out to be 6.5

So for CC(C)NC(=O)O[C@@H]1CC[C@H](c2cc(NC(=O)Cc3cnn(-c4cccc(O)c4C=O)c3)n[nH]2)C1 , the logged IC50 turned out to be 0.626

So for COc1cc(O)c(C=O)c(OCC(=O)Nc2cc([C@H]3CC[C@@H](OC(=O)N4CC[C@H](C)C4)C3)[nH]n2)c1 , the logged IC50 turned out to be 4.1

So for COc1cc(O)c(C=O)c(OCC(=O)Nc2cc([C@H]3CC[C@@H](OC(=O)NCc4ccccc4)C3)[nH]n2)c1 , the logged IC50 turned out to be 6.04

* * *

The following compounds are listed with their measured IC50 values.
# Assay Target: CDK2-NanoLuc fusion with CCNE1 in 293T or 293 cells (Homo sapiens, UniProt P24941)
# Construct: host or cells: 293T (ATCC CRL-3216) or 293 (ATCC CRL-1573)
# Method Description: NanoBRET Target Engagement (TE) Intracellular Kinase Assay, CDK2/CCNE1
# Format: cell-based
# Condition Notes: NanoBRET TE intracellular kinase assay, 2-hour incubation, read-out: NanoBRET-CDK2/E1 IC50
# output: bare number, implied unit nM

# example entries with known answers
| Compound | IC50 / nM |
| --- | --- |
| COc1cc(O)c(C=O)c(OCC(=O)Nc2cc([C@H]3CC[C@@H](OC(=O)N[C@@H](C)CF)C3)[nH]n2)c1 [Compound 120] | 2.64 |
| Cc1cc(O)c(C=O)c(OCC(=O)Nc2cc([C@H]3CC[C@@H](OC(=O)N4C5CCC4CC5)C3)[nH]n2)c1 [Compound 161] | 2.79 |
| COc1cc(O)c(C=O)c(OCC(=O)Nc2cc([C@H]3CC[C@@H](OC(=O)N4CC[C@@H]5C[C@@H]54)C3)[nH]n2)c1 [Compound 236] | 1.9 |

Here is the next item to consider.
So for COc1cc(O)c(C=O)c(OCC(=O)Nc2cc([C@H]3CC[C@@H](OC(=O)NC(C)C)C3)[nH]n2)c1 [Compound 64] , the logged IC50 turned out to be 2.76

* * *

# Assay Target: CDK1-NanoLuc fusion with CCNB1 in 293T or 293 cells (Homo sapiens, UniProt P06493)
# Construct: host or cells: 293T (ATCC CRL-3216) or 293 (ATCC CRL-1573)
# Method Description: NanoBRET Target Engagement (TE) Intracellular Kinase Assay, CDK1/CCNB1
# Format: cell-based
# Condition Notes: NanoBRET TE intracellular kinase assay, 2-hour incubation, read-out: NanoBRET-CDK1/B1 IC50
Measure: IC50 (nM)
# output: bare number, implied unit nM

# example entries with known answers
| Structure String | Assay Target | IC50 [nM] |
| --- | --- | --- |
| COc1cc(O)c(C=O)c(-n2cc(CC(=O)Nc3cc([C@H]4CC[C@@H](OC(=O)NC(C)C)C4)[nH]n3)cn2)c1 | CDK1-NanoLuc fusion with CCNB1 in 293T or 293 cells (Homo sapiens, UniProt P06493) | 47 |
| CC(C)NC(=O)O[C@@H]1CC[C@H](c2cc(NC(=O)c3cn(-c4cccc(O)c4C=O)nc3C(F)F)n[nH]2)C1 | CDK1-NanoLuc fusion with CCNB1 in 293T or 293 cells (Homo sapiens, UniProt P06493) | 175 |
| CC(C)NC(=O)O[C@@H]1CC[C@H](c2cc(NC(=O)c3cc(Oc4cccc(O)c4C=O)nn3C)n[nH]2)C1 | CDK1-NanoLuc fusion with CCNB1 in 293T or 293 cells (Homo sapiens, UniProt P06493) | 78 |

So for CC(C)NC(=O)O[C@@H]1CC[C@H](c2cc(NC(=O)c3cnc(-c4cccc(O)c4C=O)o3)n[nH]2)C1 , the logged IC50 turned out to be 69.9

* * *

# Assay Target: CDK4-NanoLuc fusion with CCND1 in 293T or 293 cells (Homo sapiens)
# Construct: host or cells: 293T (ATCC CRL-3216) or 293 (ATCC CRL-1573)
# Method Description: NanoBRET Target Engagement (TE) Intracellular Kinase Assay, CDK4/CCND1
# Format: cell-based
# Condition Notes: NanoBRET TE intracellular kinase assay, 2-hour incubation, read-out: NanoBRET-CDK4/D1 IC50
pIC50: −log10 of the molar value.
Measure: pIC50

# example entries with known answers
| Molecule | pIC50 |
| --- | --- |
| CC(C)NC(=O)O[C@@H]1CC[C@H](c2cc(NC(=O)COc3cc(-n4cccn4)cc(O)c3C=O)n[nH]2)C1 [Compound 257] | < 5.00 |
| COc1cc(O)c(C=O)c(OCC(=O)Nc2cc([C@H]3C[C@@H](OC(=O)NC(C)C)C3)[nH]n2)c1 [Compound 113] | < 5.00 |
| COc1cc(O)c(C=O)c(OCC(=O)Nc2cc([C@H]3CC[C@@H](OC(=O)N4CCCO4)C3)[nH]n2)c1 [Compound 224] | < 5.00 |
| COc1cc(O)c(C=O)c(OCC(=O)Nc2cc([C@H]3CC[C@@H](OC(=O)NCc4ccccn4)C3)[nH]n2)c1 [Compound 166] | < 5.00 |

So for Cc1cc(O)c(C=O)c(OCC(=O)Nc2cc([C@H]3CC[C@@H](OC(=O)NC(C)C)C3)[nH]n2)c1 [Compound 57] , the logged pIC50 turned out to be < 5.02

So for COc1cc(O)c(C=O)c(OCC(=O)Nc2cc([C@H]3C[C@@H](OC(=O)NC(C)C)C3)[nH]n2)c1 [Compound 223] , the logged pIC50 turned out to be < 5.00

Recorded values, source patent US20250289789A1.
